- System: HCT116
- Test Protocol: In Vitro cytotoxicity measured by the cell colony formation assay
- Format: cell-based
- Protocol Conditions: Homo sapiens, HCT-116; 72 h drug incubation, colonies counted after 7 days; concentration producing 50% inhibition of colony formation; read-out: IN VITRO ID 50 (nm) HCT116
IC50 for assorted molecules
Property Measured: IC50

Molecule: CCC(=O)O[C@H]1C[C@H]2OC[C@@]2(OC(C)=O)[C@H]2[C@H](OC(=O)c3ccccc3)[C@]3(O)C[C@H](OC(=O)[C@H](O)[C@@H](NC(=O)c4ccco4)c4ccco4)C(C)=C([C@@H](O)C(=O)[C@]12C)C3(C)C [Compound 3629]
Assay System: HCT116
Obs Value: < 1 nM

Molecule: CCCC(=O)OC1CC2OCC2(OC(C)=O)C2C(OC(=O)c3ccccc3)C3(O)CC(OC(=O)C(O)C(NC(=O)OCC(C)C)c4ccsc4)C(C)=C(C(O)C(=O)C12C)C3(C)C (stereo not shown) [Compound 4600]
Assay System: HCT116
Obs Value: < 10 nM

Molecule: CCC(=O)OC1CC2OCC2(OC(C)=O)C2C(OC(=O)c3ccccc3)C3(O)CC(OC(=O)C(O)C(NC(=O)OCC(C)C)c4ccsc4)C(C)=C(C(O)C(=O)C12C)C3(C)C (stereo not shown) [Compound 4544]
Assay System: HCT116
Obs Value: < 10 nM

Molecule: CCC(=O)O[C@H]1C[C@H]2OC[C@@]2(OC(C)=O)[C@H]2[C@H](OC(=O)c3ccccc3)[C@]3(O)C[C@H](OC(=O)[C@H](O)[C@@H](NC(=O)OC(C)(C)C)C(C)C)C(C)=C([C@@H](O)C(=O)[C@]12C)C3(C)C [Compound 1434]
Assay System: HCT116
Obs Value: < 10 nM
